# Test system: SNB-19 CNS
# test name: NCI tumour cell line growth inhibition, 48 h
Where a SMILES comes first, the peptide text is derived from it. [ ]: non-standard residue; d: D form. The star is where a group is joined. NMeV = CN[C@H](C(=O)O)C(C)C; X29 = COc1ccc(CN*)c(OC)c1; Octanoyl = CCCCCCCC(=O)*; dNMeA = CN[C@H](C)C(=O)O; Boc = CC(C)(C)OC(=O)*
measurement name: TGI

Past entries and their recorded results:
>  <compound>
O=C(CCCN1CCC2(CC1)CC(c1ccccc1)OC2=O)c1ccc(F)cc1 (centres undefined)

>  <experimental target>
SNB-19 CNS

>  <TGI>
> 100 µM

$$$$
>  <compound>
O=C(O)C12C3CCC(CC3)C1(C(=O)O)C1CCC2C1 (centres undefined)

>  <experimental target>
SNB-19 CNS

>  <TGI>
> 100 µM

$$$$
>  <compound>
COC1C=COC2(C)Oc3c(C)c(O)c4c(c3C2=O)/C(=N/C2CCC(O)OC2C)C=C(NC(=O)/C(C)=C\C(=O)C2CC2C(O)C(C)C(O)C(C)C(OC(C)=O)C1C)C4=O (centres undefined)

>  <experimental target>
SNB-19 CNS

>  <TGI>
11.6 µM

$$$$
>  <compound>
COc1cc2c(cc1OC)C1C=NC(C2)c2cc(OC)c(OC)cc21 (centres undefined)

>  <experimental target>
SNB-19 CNS

>  <TGI>
> 100 µM

$$$$
>  <compound>
CCCCn1c(N)c(-c2nc3ccccc3o2)sc1=S

>  <experimental target>
SNB-19 CNS

>  <TGI>
> 100 µM

$$$$
>  <compound>
NC(CSC1c2ccccc2-c2ccccc21)C(=O)O (centres undefined)

>  <experimental target>
SNB-19 CNS

>  <TGI>
> 100 µM

$$$$
>  <compound>
COc1cc(/C=C/c2nc(NC(=S)Nc3ccccc3)nnc2C)cc(OC)c1OC

>  <experimental target>
SNB-19 CNS

>  <TGI>
> 100 µM

$$$$
>  <compound>
COc1cc2c(cc1C1COc3cc4occc4cc3C1=O)OCO2 (centres undefined)

>  <experimental target>
SNB-19 CNS

>  <TGI>
> 100 µM

$$$$

Quick request: TGI for each listed item, please.
1. O=[N+]([O-])c1cccc2nnccc12
2. O=C1OCC2=C1C(c1ccc(Cl)c(Cl)c1)c1cc3c(cc1N2CCO)OCCO3 (centres undefined)
3. N#Cc1c(N2CCOCC2)nc(=S)[nH]c1-c1ccco1
4. CC(C)(C)OC(=O)NC(Cc1ccc(O)cc1)C(=O)N1CCCC1C(=O)O (stereo not drawn) (Boc-Tyr-Pro-OH; configuration not given here)

Result ::
87.1 µM
> 50 µM
> 100 µM
> 100 µM

Quick request: TGI for each listed item, please.
1. Cc1ccc2c(C3Cc4ccccc4N3C(=O)/C=C\C(=O)O)c(C)[nH]c2c1 (centres undefined)
2. C/C(=C\c1ccc2ccccc2c1)[N+](=O)[O-]
3. CCCCCCCC(=O)N[C@H](C(=O)N[C@H](C(=O)N(C)[C@H](C(=O)N1CCC[C@H]1C(=O)N(C)[C@H](C)C(=O)NCc1ccc(OC)cc1OC)C(C)C)C(C)C)C(C)C (Octanoyl-VV[NMeV]P[dNMeA]-X29)
4. CC(=O)NC(CCCNC(=O)N(CCCl)N=O)C(=O)NCc1ccccc1 (centres undefined)
5. C[C@@H]1CN(Cc2ccc(F)cc2)[C@@H](C)CN1C(=O)c1cc2c(C(=O)C(=O)N(C)C)cn(C)c2cc1Cl
6. COc1ccc(-c2cc(-c3ccc(C)cc3)nc3nc(=S)[nH]c(N)c23)cc1
7. CC(=O)OC12C=C(C)C(C(C)C1)C1C(=O)N(CCN3CCOCC3)C(=O)C12 (centres undefined)

Result ::
["> 100 µM", "19.7 µM", "> 100 µM", "> 100 µM", "64.1 µM", "> 100 µM", "> 100 µM"]
